Form field: inhibition at 10 µM (one value per entry).
target: Amine oxidase [flavin-containing] A (Homo sapiens); experiment: Inhibition of recombinant human MAO-A expressed in baculovirus infected High 5 insect cells at 10 uM using kynuramine as substrate incubated for 30 mins by spectrofluorometric method relative to control; conditions: 0.5 h
Sequence (P21397 whole entry): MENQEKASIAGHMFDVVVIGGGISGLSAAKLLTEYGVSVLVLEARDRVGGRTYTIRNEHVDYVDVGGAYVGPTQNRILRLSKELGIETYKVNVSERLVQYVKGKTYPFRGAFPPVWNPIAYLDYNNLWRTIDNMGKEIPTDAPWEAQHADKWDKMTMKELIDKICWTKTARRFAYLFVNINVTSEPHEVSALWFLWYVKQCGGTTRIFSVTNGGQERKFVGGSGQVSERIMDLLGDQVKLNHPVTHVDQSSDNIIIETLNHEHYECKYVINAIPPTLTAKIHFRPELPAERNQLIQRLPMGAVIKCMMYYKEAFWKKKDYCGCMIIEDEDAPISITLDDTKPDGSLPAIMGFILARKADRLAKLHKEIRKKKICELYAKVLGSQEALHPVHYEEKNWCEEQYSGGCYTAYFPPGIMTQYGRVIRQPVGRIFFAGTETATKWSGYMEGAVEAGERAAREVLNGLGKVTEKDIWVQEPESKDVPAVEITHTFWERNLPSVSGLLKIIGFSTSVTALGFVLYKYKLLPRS
measure-name: inhibition at 10 µM

• CN(C)C(=O)Oc1ccc(C(=O)/C=C/c2ccc(N(C)C)cc2)c(OC(=O)N(C)C)c1 = 34.6%
• CN(C)c1ccc(/C=C/C(=O)c2ccc(OC(=O)N3CCCCC3)cc2OC(=O)N2CCCCC2)cc1 = 17%
• CCN(C)C(=O)Oc1ccc(C(=O)/C=C/c2ccc(N(C)C)cc2)c(O)c1 = 25.9%
• CN(C)c1ccc(/C=C/C(=O)c2ccc(OC(=O)N3CCCC3)cc2O)cc1 = 12.8%
• CN(C)c1ccc(/C=C/C(=O)c2ccc(OC(=O)N3CCCC3)cc2OC(=O)N2CCCC2)cc1 = 25.2%
• CN(C)c1ccc(/C=C/C(=O)c2ccc(OC(=O)N3CCOCC3)cc2O)cc1 = 34.6%
• CCN(CC)C(=O)Oc1ccc(C(=O)/C=C/c2ccc(N(C)C)cc2)c(O)c1 = 24.4%

---

test: Antioxidant activity assessed as trolox equivalents of AAPH radical scavenging activity at 5 uM preincubated for 15 mins followed by AAPH addition measured every 60 sec for 90 mins by ORAC-FL assay; format: functional
Each record here notes measured Activity.
measure-name: Activity

* CCN(CC)c1ccc(/C=C/C(=O)c2ccc(OC(=O)N3CCCC3)cc2O)cc1 | 1.02 µMequiv/µM
* O=C(/C=C/c1ccc(N2CCOCC2)cc1)c1ccc(OC(=O)N2CCCC2)cc1O | 0.51 µMequiv/µM
* CN(C)c1ccc(/C=C/C(=O)c2ccc(OC(=O)N3CCCC3)cc2OC(=O)N2CCCC2)cc1 | 2.45 µMequiv/µM
* CN(C)c1ccc(/C=C/C(=O)c2ccc(OC(=O)N3CCOCC3)cc2O)cc1 | 2.04 µMequiv/µM
* CN(C)C(=O)Oc1ccc(C(=O)/C=C/c2ccc(N(C)C)cc2)c(O)c1 | 2.62 µMequiv/µM

---

The following molecules have recorded IC50 on Acetylcholinesterase (Electrophorus electricus).
Sequence (O42275 whole entry): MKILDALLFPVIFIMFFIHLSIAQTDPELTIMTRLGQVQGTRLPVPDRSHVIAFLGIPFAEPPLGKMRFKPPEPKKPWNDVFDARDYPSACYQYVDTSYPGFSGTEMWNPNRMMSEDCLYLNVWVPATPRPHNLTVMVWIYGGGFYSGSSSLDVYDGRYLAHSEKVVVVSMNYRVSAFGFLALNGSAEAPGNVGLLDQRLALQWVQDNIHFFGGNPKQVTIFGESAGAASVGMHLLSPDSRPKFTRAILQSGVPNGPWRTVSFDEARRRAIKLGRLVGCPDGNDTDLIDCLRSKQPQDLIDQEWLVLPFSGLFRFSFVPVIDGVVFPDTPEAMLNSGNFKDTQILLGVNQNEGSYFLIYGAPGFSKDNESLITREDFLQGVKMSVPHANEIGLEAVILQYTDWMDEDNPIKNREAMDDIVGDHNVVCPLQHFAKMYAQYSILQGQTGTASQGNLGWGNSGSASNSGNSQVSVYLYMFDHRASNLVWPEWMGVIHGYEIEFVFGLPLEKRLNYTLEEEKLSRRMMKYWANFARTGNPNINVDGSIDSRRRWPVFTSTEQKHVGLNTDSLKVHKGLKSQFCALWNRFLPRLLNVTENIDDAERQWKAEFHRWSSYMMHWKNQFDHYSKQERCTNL
measure-name: IC50 (µM)

- CCN(CC)c1ccc(/C=C/C(=O)c2ccc(OC(=O)N3CCCC3)cc2O)cc1: 11.7
- CN(C)c1ccc(/C=C/C(=O)c2ccc(OC(=O)N3CCCC3)cc2O)cc1: 4.91
- CCN1CCN(C(=O)Oc2ccc(C(=O)/C=C/c3ccc(N(C)C)cc3)c(O)c2)CC1: 8.62
- CN(C)c1ccc(/C=C/C(=O)c2ccc(OC(=O)N3CCCCC3)cc2OC(=O)N2CCCCC2)cc1: 32.4
- O=C(/C=C/c1ccc(N2CCOCC2)cc1)c1ccc(OC(=O)N2CCCC2)cc1O: 63.5

---

experiment: Inhibition of Cu2+-mediated aggregation of amyloid beta (1-42) (unknown origin) at 25 uM after 24 hrs by thioflavin T fluorescence-based fluorimetric method relative to control; format: functional
measure-name: inhibition (%)

* CN(C)c1ccc(/C=C/C(=O)c2ccc(OC(=O)N3CCCC3)cc2O)cc1 | 79.7
* CN(C)c1ccc(/C=C/C(=O)c2ccc(OC(=O)N3CCCCC3)cc2OC(=O)N2CCCCC2)cc1 | 23.8
* CN(C)c1ccc(/C=C/C(=O)c2ccc(O)cc2O)cc1 | 60.1
* CN(C)c1ccc(/C=C/C(=O)c2ccc(OC(=O)N3CCCC3)cc2OC(=O)N2CCCC2)cc1 | 26.3
* CN(C)c1ccc(/C=C/C(=O)c2ccc(OC(=O)N3CCOCC3)cc2O)cc1 | 79.7
* CCN(CC)c1ccc(/C=C/C(=O)c2ccc(OC(=O)N3CCCC3)cc2O)cc1 | 67.1
* O=C(/C=C/c1ccc(N2CCCC2)cc1)c1ccc(OC(=O)N2CCCC2)cc1O | 48.9
* O=C(/C=C/c1ccc(N2CCCCC2)cc1)c1ccc(OC(=O)N2CCCC2)cc1O | 59.8
* CN(C)c1ccc(/C=C/C(=O)c2ccc(OC(=O)N3CCOCC3)cc2OC(=O)N2CCOCC2)cc1 | 41.4
